A set of compounds tested on Vero E6 cells, with measured CC50:

{"columns": ["compound", "test target", "CC50"],
 "data": [
  ["[N-]=[N+]=N[C@]1(CO)O[C@@H](n2ccc(N)nc2=O)[C@H](O)[C@@H]1O [R-1479]", "Vero E6 cells", "> 100 µM"]
]}

Next compound, CC50 to be filled in.
Challenge: Which measured CC50 belongs to CCC(CC)O[C@@H]1C=C(C(=O)O)C[C@H](N)[C@H]1NC(C)=O [Oseltamivir carboxylate] , tested on Vero E6 cells?
Response given: > 100 µM
